tested on: HS578T; experiment: normalised growth rate inhibition (GR value) relative to DMSO control (GR (1 = untreated growth, 0 = cytostasis, <0 = cytotoxic)); higher = less growth inhibition; conditions: 0.37 µM; 72 h
normalised growth rate inhibition values, listed per item
Output: the number by itself.

Solved cases (6 shown):
Entry `CNC(=O)c1cc(Oc2ccc(NC(=O)Nc3ccc(Cl)c(C(F)(F)F)c3)cc2)ccn1` ; normalised growth rate inhibition = 1.16

Given item `COCC(=O)NC/C=C/c1ccc2ncnc(Nc3ccc(Oc4ccc(C)nc4)c(C)c3)c2c1` , the value recorded as its normalised growth rate inhibition is 0.963

For `CC[C@@H]1C(=O)N(C)c2cnc(Nc3ccc(C(=O)NC4CCN(C)CC4)cc3OC)nc2N1C1CCCC1` the molecule record lists normalised growth rate inhibition as -0.0972

Field normalised growth rate inhibition (entry `CO[C@H]1C[C@@H]2CC[C@@H](C)[C@@](O)(O2)C(=O)C(=O)N2CCCC[C@H]2C(=O)O[C@H]([C@H](C)C[C@@H]2CC[C@@H](O)[C@H](OC)C2)CC(=O)[C@H](C)/C=C(\C)[C@@H](O)[C@@H](OC)C(=O)[C@H](C)C[C@H](C)/C=C/C=C/C=C/1C` ) reads 0.619

So for `O=C(NOCC1CC1)c1ccc(F)c(F)c1Nc1ccc(I)cc1Cl` , the logged normalised growth rate inhibition turned out to be 0.605

Per the record, `NC(=O)Nc1cc(-c2cccc(F)c2)sc1C(=O)N[C@H]1CCCNC1` has normalised growth rate inhibition of -0.0107

Consider the additional molecule presented here.
normalised growth rate inhibition for `CC(C)CC(=O)Nc1n[nH]c2c1CN(C(=O)C1CCN(C)CC1)C2(C)C` is 0.227

###

tested on: MCF7; test: normalised growth rate inhibition (GR value) relative to DMSO control (GR (1 = untreated growth, 0 = cytostasis, <0 = cytotoxic)); higher = less growth inhibition; settings: 3.33 µM; 72 h
Measured parameter: normalised growth rate inhibition
Provide a numeric answer; units are not to be included.

For `C=CC(=O)N1CCc2ccc(-n3c(=O)ccc4cnc5ccc(-c6cnn(C)c6)cc5c43)cc21` on MCF7, measured normalised growth rate inhibition was -0.109

Record `CC(C)CC(=O)Nc1n[nH]c2c1CN(C(=O)C1CCN(C)CC1)C2(C)C` ; system MCF7; normalised growth rate inhibition = -0.102

Test item `Cc1[nH]c(/C=C2\C(=O)Nc3ccc(S(=O)(=O)Cc4c(Cl)cccc4Cl)cc32)c(C)c1C(=O)N1CCC[C@@H]1CN1CCCC1` ; MCF7; reported normalised growth rate inhibition was 0.923

Next up:
Noted normalised growth rate inhibition for `COc1cc2ncn(-c3cc(OCc4ccccc4C(F)(F)F)c(C(N)=O)s3)c2cc1OC` , tested on MCF7: 0.0415

###

test system: MCF7; test: normalised growth rate inhibition (GR value) relative to DMSO control (GR (1 = untreated growth, 0 = cytostasis, <0 = cytotoxic)); higher = less growth inhibition; settings: 10 µM; 72 h
Here, each record is paired with measured normalised growth rate inhibition data.
Please state the value as a number alone, without comment.

Let me check: CCC(=O)N1CCN(c2ccc(-n3c(=O)ccc4cnc5ccc(-c6cnc7ccccc7c6)cc5c43)cc2C(F)(F)F)CC1 [torin-1] , system MCF7, measured normalised growth rate inhibition is -0.068

// compound `CC(C)(C)c1cnc(CSc2cnc(NC(=O)C3CCNCC3)s2)o1` , assay MCF7, normalised growth rate inhibition value: -0.354

Assay MCF7, sample COc1ccc(-c2ccc3c(N4CCOC[C@@H]4C)nc(N4CCOC[C@@H]4C)nc3n2)cc1CO [AZD-8055] , normalised growth rate inhibition read: -0.216

The value of normalised growth rate inhibition recorded for O=C(Nc1cccc(Nc2ncc(Br)c(NCCc3cnc[nH]3)n2)c1)N1CCCC1 [BX-912] when tested on MCF7 reads 0.0193

MCF7 normalised growth rate inhibition of `O=C1NC(=O)/C(=C/c2ccc3nccc(-c4ccncc4)c3c2)S1` is -0.203

Per the reported MCF7 data, Cc1nc(Nc2ncc(C(=O)Nc3c(C)cccc3Cl)s2)cc(N2CCN(CCO)CC2)n1 [dasatinib] has normalised growth rate inhibition of -0.0825

Record Cc1cc(C(=O)NOCCO)c(Nc2ccc(I)cc2F)n(C)c1=O [AZD-8330] / MCF7, normalised growth rate inhibition recorded as 0.465

###

system: MCF7; experiment: normalised growth rate inhibition (GR value) relative to DMSO control (GR (1 = untreated growth, 0 = cytostasis, <0 = cytotoxic)); higher = less growth inhibition; details: 3.33 µM; 72 h
Class condition met: normalised growth rate inhibition at least 0.3. Class condition not met: normalised growth rate inhibition below 0.3.

Reference set, count: 10
Query: Is normalised growth rate inhibition for `Cc1cc2c(F)c(Oc3ncnn4cc(OC[C@@H](C)O)c(C)c34)ccc2[nH]1` at or above 0.3?
Reply: condition met

Query: API: above_or_equal(metric=normalised growth rate inhibition, cutoff=0.3) for item `Cc1nc(Nc2ncc(C(=O)Nc3c(C)cccc3Cl)s2)cc(N2CCN(CCO)CC2)n1`
Reply: condition not met

Query: Answer whether normalised growth rate inhibition of `CS(=O)(=O)N1CCN(Cc2cc3nc(-c4cccc5[nH]ncc45)nc(N4CCOCC4)c3s2)CC1` is greater than or equal to 0.3.
Reply: condition not met

Query: Is it the case that `Cc1[nH]c(/C=C2\C(=O)Nc3ccc(S(=O)(=O)N(C)c4cccc(Cl)c4)cc32)c(C)c1C(=O)N1CCN(C)CC1` has normalised growth rate inhibition reaching or exceeding 0.3?
Reply: condition met

Query: Entry `O=c1cc(N2CCOCC2)oc2c(-c3cccc4c3sc3ccccc34)cccc12` : is its normalised growth rate inhibition no less than 0.3?
Reply: condition met

Query: Could you verify whether the entry `C[C@@H](N)c1ccc(C(=O)Nc2ccnc3[nH]ccc23)cc1` shows normalised growth rate inhibition of no less than 0.3?
Reply: condition met

Query: Tell me whether normalised growth rate inhibition is at least 0.3 here: `CCN(CC)CCCCNc1ncc2cc(-c3cc(OC)cc(OC)c3)c(NC(=O)NC(C)(C)C)nc2n1`
Reply: condition met

Query: Identify whether the reported normalised growth rate inhibition of the following compound is 0.3 or greater: `Cc1cnc(Nc2ccc(OCCN3CCCC3)cc2)nc1Nc1cccc(S(=O)(=O)NC(C)(C)C)c1`
Reply: condition not met

Query: Hi, just wondering whether `N#CC[C@H](C1CCCC1)n1cc(-c2ncnc3[nH]ccc23)cn1` shows normalised growth rate inhibition of 0.3 or higher.
Reply: condition met

Query: In plain terms: is recorded normalised growth rate inhibition at least 0.3 for `O=C(NC1CCNCC1)c1n[nH]cc1NC(=O)c1c(Cl)cccc1Cl` ?
Reply: condition not met

***
Query: Entry `O=C(NOC[C@H](O)CO)c1ccc(F)c(F)c1Nc1ccc(I)cc1F` : is its normalised growth rate inhibition no less than 0.3?
Reply: condition not met

Query: Determine whether measured normalised growth rate inhibition meets or exceeds 0.3 for `Cc1nc(NC(=O)N2CCC[C@H]2C(N)=O)sc1-c1ccnc(C(C)(C)C(F)(F)F)c1`
Reply: condition not met

Query: Can `CC[C@H](CO)Nc1nc(NCc2ccccc2)c2ncn(C(C)C)c2n1` be said to have normalised growth rate inhibition at or above 0.3?
Reply: condition met

Query: Is normalised growth rate inhibition at least 0.3? Consider `O=c1[nH]c2ccccc2n1C1CCN(Cc2ccc(-c3[nH]c4cc5ncnc5cc4nc3-c3ccccc3)cc2)CC1`
Reply: condition met

Query: Tell me whether normalised growth rate inhibition is at least 0.3 here: `NC(=O)Nc1cc(-c2cccc(F)c2)sc1C(=O)N[C@H]1CCCNC1`
Reply: condition not met

###

test system: MCF10A; test: normalised growth rate inhibition (GR value) relative to DMSO control (GR (1 = untreated growth, 0 = cytostasis, <0 = cytotoxic)); higher = less growth inhibition; conditions: 0.04 µM; 72 h
// values below are reported normalised growth rate inhibition

normalised growth rate inhibition in this record for `Cc1[nH]c(/C=C2\C(=O)Nc3ccc(S(=O)(=O)Cc4c(Cl)cccc4Cl)cc32)c(C)c1C(=O)N1CCC[C@@H]1CN1CCCC1` : 0.991

// normalised growth rate inhibition lookup, compound = `CC[C@H](CO)Nc1nc(NCc2ccccc2)c2ncn(C(C)C)c2n1` , result: 0.994

Looking up `CCCS(=O)(=O)Nc1ccc(F)c(C(=O)c2c[nH]c3ncc(-c4ccc(Cl)cc4)cc23)c1F` , I found its normalised growth rate inhibition recorded as 0.99

Measured normalised growth rate inhibition of `COC(=O)c1ccc2c(C(=Nc3ccc(N(C)C(=O)CN4CCN(C)CC4)cc3)c3ccccc3)c(O)[nH]c2c1` : 1.01

`OCCCNc1cc(-c2ccnc(Nc3cccc(Cl)c3)n2)ccn1` yielded normalised growth rate inhibition of 0.263

---
Lab note: measured normalised growth rate inhibition of C=CC(=O)Nc1cccc(Nc2nc(NC3CCC(N(C)C)CC3)nc3c2ncn3C(C)C)c1 (stereo unspecified) was 0.523

normalised growth rate inhibition reported for this compound `O=C(NOC[C@H](O)CO)c1ccc(F)c(F)c1Nc1ccc(I)cc1F` : 0.263

Memo: `C=CC(=O)N1CCc2ccc(-n3c(=O)ccc4cnc5ccc(-c6cnn(C)c6)cc5c43)cc21` , reported normalised growth rate inhibition: 0.969
